All values here come from patent US20200385371A1.

// values below are IC50; system is WDR5 (Homo sapiens, UniProt P61964)
property: IC50 (nM)

C[C@H]1CN(c2cc(F)c(C3=CCN(c4ccnc(C#N)n4)C3)c(F)c2NC(=O)c2c[nH]c(=O)cc2C(F)F)CCN1C 15
COc1cc(N2CC=C(c3c(F)cc(N4CCN(C)[C@@H](C)C4)c(NC(=O)c4c[nH]c(=O)cc4C(F)(F)F)c3F)CC2)ncn1 21.6
CC(C)[C@H]1CN(c2ncc(-c3c(F)cc(N4CCN(C)[C@@H](C)C4)c(NC(=O)c4c[nH]c(=O)cc4C(F)F)c3F)cn2)CCO1 11.9

(a) C[C@@H]1CN(c2cc(F)c(-c3ccc(N4CCOCC4)c(F)c3)c(F)c2NC(=O)c2c[nH]c(=O)cc2C(F)(F)F)C[C@H](C)N1C
(b) C[C@H]1CN(c2cc(F)c(C3=CCN(c4ncc(F)cn4)C3)c(F)c2NC(=O)c2c[nH]c(=O)cc2C(F)(F)F)CCN1C
(c) COCCOc1ccc(-c2c(F)cc(N3C[C@@H](C)N(C)[C@@H](C)C3)c(NC(=O)c3c[nH]c(=O)cc3C(F)(F)F)c2F)cn1
Sort ascending by IC50. Put the labels in the requested order and write them down.
a, b, c

----------
// values below are IC50; system is WDR5 (Homo sapiens, UniProt P61964)
property: IC50 (nM)

Example entries and their recorded answers appear below.
molecule	measurementUnits	result
C[C@@H]1CN(c2cc(F)c(-c3ccc4c(c3)OCCO4)c(F)c2NC(=O)c2c[nH]c(=O)cc2C(F)(F)F)C[C@H](C)N1C [Example 72]	nM	18.2
C[C@H]1CN(c2cc(F)c(-c3ccc(N4CCOCC4)nc3)c(F)c2NC(=O)c2ccc(F)cc2C(F)(F)F)CCN1C [Example 174]	nM	19.5
C[C@@H]1CN(c2cc(F)c(-c3ccc(N4CCOCC4)cc3)c(F)c2NC(=O)c2c[nH]c(=O)cc2C(F)(F)F)C[C@H](C)N1C [Example 5]	nM	32.2
COc1cnc(N2CCC=C(c3c(F)cc(N4C[C@@H](C)N(C)[C@@H](C)C4)c(NC(=O)c4c[nH]c(=O)cc4C(F)(F)F)c3F)C2)nc1 [Example 138]	nM	19.5
C[C@H]1CN(c2ncc(-c3c(F)cc(N4CCN(C)[C@@H](C)C4)c(NC(=O)c4c[nH]c(=O)cc4C(F)F)c3F)cn2)C[C@H](C)O1 [Example 119]	nM	11.7

(A) C[C@@H]1CN(c2ncc(-c3c(F)cc(N4C[C@@H](C)N(C)[C@@H](C)C4)c(NC(=O)c4c[nH]c(=O)cc4C(F)F)c3F)cn2)CCO1 [Example 130]
(B) C[C@@H]1CN(c2ncc(-c3c(F)cc(N4CCN(C)[C@@H](C)C4)c(NC(=O)c4ccc(F)cc4C(F)F)c3F)cn2)C[C@@H](C)O1 [Example 158]
Lab note: check whether A or B has the lower measured IC50. Answer format: the label of the selected item.
A

----------
Tested on: MV4-11 cells
Assay: Cell proliferation assay (ATPlite)
Assay type: cell-based
Settings: Homo sapiens, 120 h; MV4-11 cells, five days; read-out: GI MV411 EC50
property: EC50 (nM)

Example entries and their recorded answers appear below.
C[C@@H]1CN(c2ncc(-c3c(F)cc(N4C[C@@H](C)N(C)[C@@H](C)C4)c(NC(=O)c4c[nH]c(=O)cc4C(F)F)c3F)cn2)C[C@@H](C)O1 36.5
CC(C)[C@@H]1CN(c2ncc(-c3c(F)cc(N4C[C@@H](C)N(C)[C@@H](C)C4)c(NC(=O)c4c[nH]c(=O)cc4C(F)(F)F)c3F)cn2)CCO1 14.3
C[C@@H]1CN(c2nccc(-c3c(F)cc(N4CCN(C)[C@@H](C)C4)c(NC(=O)c4c[nH]c(=O)cc4C(F)(F)F)c3F)n2)C[C@H](C)O1 99.1

(I) C[C@H]1CN(c2cc(F)c(-c3cnc(N4CC5CCC(C4)O5)nc3)c(F)c2NC(=O)c2c[nH]c(=O)cc2C(F)F)CCN1C
(II) C[C@@H]1CN(c2nccc(-c3c(F)cc(N4C[C@@H](C)N(C)[C@@H](C)C4)c(NC(=O)c4c[nH]c(=O)cc4C(F)(F)F)c3F)n2)C[C@H](C)O1
Lab notebook, comparison: I versus II , higher EC50 goes to which? Answer format: the label of the selected item.
II
